B1: TPR t1 (parent)
chain: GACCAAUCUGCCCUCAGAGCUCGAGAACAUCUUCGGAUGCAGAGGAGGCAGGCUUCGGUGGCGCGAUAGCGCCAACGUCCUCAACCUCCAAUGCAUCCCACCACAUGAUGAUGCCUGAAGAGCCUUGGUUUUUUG

- Variants of: B1
- assayNotes: polymerase ribozyme fitness, log enrichment relative to wild type (log ratio); higher = more active; in vitro selection for triplet polymerase activity
measuredAttribute: polymerase ribozyme fitness (log ratio)
Numbers only.

Completed entries (count: 3):
GACCAAUCUGCCCUCAGAGCUCGAGAACAUCUUCGGAUGCAGAGGAGGCAGGCUUCGGUGGCGCGAUAUCGCCAACGUGCUCAACCUCCAAUGCAUCCCACCACAUGAGGAUGCCUGAAGAGCCUUGGUUUUUUG	-2.86
GACCUAUCUGCACUCAGAGCUCGAGAACAUCUUCGGAUGCAGAGGAGGCAGGCUUCGGUGGCGCGAUAGCGCCAACGUCCUCAACCUCCGAUGCAUCCCACCACAUGAUGAUGCCUGAAGAGCCUUGGUUUUUUG	-0.323
GACCAAUCUGCCCUCAGAGCUCGAGAACAUCUUCGGAUGUAGUGGAGGAAGGCUCCGGUGCCGCGAUAGCGCCAACGUCCUCACCCUCCAAUGCAUCCCACCACAUGAUCAUGCCUGAAGAGCCUUGGUUCUUUG	-6.76

Give polymerase ribozyme fitness (log ratio) for each listed item.
1. GACCAAUCUGCCCUCAGAGCUCGAGAACAUCUUCGGAUGCAGAGGAGGCAGGCUUCGGUGGCGCGAUAGCGCCAACGUCCUCAACCUCCAAUGCAUCCCACCACAUGAUGAUGCCUGAACAGCCUUGCUUUUUUG
2. GACCAAUCUGCCCUCAGAGCUCGAGAACAUCUUCGGAUGCAGAGGAGGCAGGCUUCGGUGGAGCGAUAGCGCCAACGACCUCAACCUCCAUUGCAUCCCACCACAUGAUGCUGCCUGAAGAGCCUUGGUUUUUUG
3. GACCAAUCUGCCCUCAGAGCUCGAGAACAUCUUCGGAUGCAGAGGAGGCAGGCUUCGGUGGCGUGAUAGCGCCAACGUCCUCAACCUCCAAUGCAUCCCACCACAUGAUGAUGCCUGAAGAGCCUUCGUUUUUUG
4. GACCAAUCUGCCCUCAGAGCUCGAGAAGAUCUUCGGAUGCAGAGGAGGCAGGCGUCGGUGGCGCGAUAGCGCCAACGUCCUCAACCUCCAAUGCAUUCCACCACAUGAUGAUGCCUGAAGAGCCUUGGUACUUUG
5. GACCAAUCUGCCCUCAGAGCUCGAGAACAUCUUCGGAUGCAGAGGAUGCAGGCUUCGGUGGCGUGAUAGCGCCAACGUCCUCAACCUCCAAUGCAUCCCACCACAUGAUGAUGCCUGAAGAGCCUUGGUUUUUUG

-- reply
-2.04
-4.78
-1.82
-3.57
-1.51

Give polymerase ribozyme fitness (log ratio) for each listed item.
1. GACCAAUCCGCCCUCAGAGCUCGAGAACAUCUUCGGAUGCAGAGGAGGCAGGCUUUGGUGGCGCGAUAGCGCCAACGUCCUCUACCUCCAAUGCAUCCCACCACAUGAUGAUGCCUAAAGAGCCUUGGUUUUUUG
2. GACCAACCUGCCCUCGGAGCUCGAGAACAUCUUCGGAUGCAGAGGAGGCAGGCUUCGGUGGCGCGAUAGAGCCAACGUCCUCAACCUCCAAUGUAUCCCACCAUAUGAUGAAGCCUGAAGAGCCUUGGUUUUUUG
3. GACGAAUCUGCCCUCAGAGCUCGAGAACAUCUUCGGAUGCAGAGGAGGGAGGCUUCGGUCGCGCGAUAGCGCCAACGUCCUCAACCUCCAAUGCAUCCCACCACAUGAUGAUGCCUGAUGAGCCUUGGUUUUAUG
4. GACCAAUCUGCCCUCAGAGCUCGAGAACAUCUUCGGAUGCGGAGGAGGCAGGCUUCAGUGGCGCGAUAGCGCCAACGUCCUCAACCUCCAAUGCAUCCCACCACACGAUGAUGCCUGAAGAGCCUUGGUUUUUUG
5. GUCCAAUGUGCCCUCAGAGCUCGAGACCAUCUUCGCAUGGAGAGGAGGCAGGCUUCGGUAGCGCGAUAGCGCCAACGUCCUCAACCUCCAAUCCAUCCCACCACAUGAUUAUGCCUGAAGAGCCUUGGUGUUUUG
6. GACCAAUCUGCCCUCAGAGCUGGAGAACAUCUUCGGAUGCAGAGGAGGCAGGCUUCGGUGGCGCGAUAGCGCCAACGUCCUCAGCCUCCAAUGCAUCCCACCACAUGAUGAUGCCUGAAGAGCCUUGGUUUUUUG

-- reply
0.635
-1.32
-3.77
-1.93
-5.89
-4.29

Give polymerase ribozyme fitness (log ratio) for each listed item.
1. GACCAAUCUGCCCUCAGAGCUCGAGAACAUCUUCGGAUGCAGAGGAGGCAGGCUUCGGUGGCGCGAUAGUGCCAACGUCCUCAACCUCCAAUGAAUCCCACCACAUGAUGAUGCCUGAAGAGCCUUGGUUUUUUG
2. GACCAAUCUGCCCUCAGAGCUCGAGAACAUCUUCGGAUGCAGAGGAGGCAGGCUUCGGUGGCGCGAUAGGGCCAACGUCCUCAACCUCCAAUGCAUCCCACCAUAUGAUGAUGCCUGAAGAGCCUUGGUUUUUUG
3. GACCAAUCUGCCCUCAGAGCUCGAGAACAUCUUCAGAUGGAGAGGAGGCAGGCUUCGGUGGCGCGAUAGCGCCAACGUCCUCAACCUCCAAUGCAUCUCACCACAUGAUGAUGCCUGAAGAGGCUUGGUUUUUUG
4. GACCAAUCUCCCAUCAGAGCUCGAGAACAUCUUCGGAUGCAGAGGAGGCAGGCUUCGGUGGCGUGAUAGCGCCAACGUCCUUCACCUCCAAUGCAUCCCACCACAUGAUGAUGCCUGAAGAGCCUUGGUUUUUUG
5. GACCAAUCUGCCCUCAGAGCUCGAGAACAUCUUCGGUUGCAGAGGAAGCAGGCUUCGGUGGCGCGAUGGCGCCAACGUCAUCAACCUCCAAUGCAUCCCACCACAUGAUGAUGCCUGAAGAGCCUUGGUUUUUUG
6. GACCAAUCUGCCCUCAGAGCUCGAGAACAUCUUCGGAUGCAGAGGAGGCAGGCUUCGGUGGGGCGAUAGCGCCAAGGUCCUCAACCUCCAAUGCAUCCCACCACAUGAUGAAGCCUGAAGAGCCUUGGUUUUUUG

-- reply
1. -1.13
2. -3.03
3. -0.89
4. -1.29
5. -6.59
6. -3.99

Give polymerase ribozyme fitness (log ratio) for each listed item.
1. GACCAAUCUGCCCUCAGAGCUCGAGAACAUCUUCGGAUGCAGAGGAGGCAGGCUUCGGUGGCGCGAUAGCGCAAACGUCCUCAACCUUCAAUGCAUCCCACCACAUGAUGAUGGCUGUAGAGCCUUGGUUUUUUG
2. GACCAAUCUGCCCUCAGAGCUCGAGAACAUCUUCGGAUGCAGAGGAGGCAGGCUUCGGUGGCGCGAUAGCGCCAACGUCCUCAACCUACAAUGCAGCCCACCACAUGAUGAUGCCUGAAGAGCCUUGGUUUUUUG
3. GACCAGUCUGGCCUCAGAGCUCGAGAACAUCUUCGGAUGCAGAGGAGGCAGGCUUCUGUGGCGCGAUAGCGCCAACGUCCUCAACCUCCAAUGCAUCCCACCACAUGAUGAUGCCUGAAGAGCCUUGGUUUUUUG
4. GACCAAUCUGCCCUCAGAGCUUGAGAACAUCUUCGGAUACAGAGGAGGCAGGCUUCGGUGGCGCGAUAGCGCCAACGUCCUCAACCUCCAAUGCAUCCCACCACAUGAUGAUGCCUGAAGAGCCUUGGUUUUUUG
5. GAACAAUCUGCCCUCAGCGCUCGAGAACAUCUUCGGAUGCAGAGGAGGCAGGCUUCGGUGGCGCGAUAGCGCCAACGUCCUCAACCUCCAAUGCAUCCCACCACAUGAUGACGCCUGAAGAGCCUUGGUCUUUUG
6. GACCAAUCUGGCCUCAGAGCUCGAGAACAUCUUCGGAUGCAGAGGAGGCAGGCUUCGGUGGCGCGAUAGGGCCAACGUCCUCAACCUCCAAUGCAUCCCACCACAUGAUGAUGCCUGAAGAGUCUUGGUUUUUUG
7. GACCAAUCUGCCCUCAGAGCUCGAGAACAUCUUCGGAUGCAGAGAAGGCAGGCUUCGGUGGCGCGAUAGAGCCAACGUCCUCAACCUCCAAUGCAUCCCACCACAUGAUGAUGCAUGAAGAGCCUUGGUUUUUUG
8. GACCAAUCUGCCCUCAGAGCUCGAGAACAUCUUCGGAUGCAGAGGAGGCAGGCUUCGGUGGCGCGAUAGCGCUAACGUCCUCAGCCUCCUAUGCAUCCCACCGCAUGAAGAUGCCUGAAGAGCAUUGGUUUUUUG

-- reply
1. -3.36
2. -0.386
3. 0.178
4. -4.66
5. -0.927
6. -0.504
7. -0.928
8. -4.51

Give polymerase ribozyme fitness (log ratio) for each listed item.
1. GACCAAGCUGCCCUCAGAGCUCGAGAACAUCUUCGGAUGCAGAGGAGGCAGGCUUCGGUGGCGCGAUAGCGCCAACGUCCUCAACCUCCAAUGCACCCCACCACAUGAUGAUGCCUGAAGAGCCUUGGUUUUUUG
2. GACCAAUCUGCCCUCAGAGCUCGAGAACAUCUUCGGAUGCAGAGGAGGCAGGCUUCGGUGGCGCGAUAGCGACAACGUCCUCAAACUCCAAUGCAUCCCACCACAUGAUGAUGCCUGAAGAGCCUUGGUUUUUUG
3. GACCAAUCUGCCCUCAGAGCUCGAGAACAUCUUCGGAUGCAGAGGAGACUGGCUUCGGUGGCGCGAUAGCGCCAACGACCUCAACCUCCAAUGCAUCCCACCACAUGAUGAUGCCUGAGCAGCCUUGGUUUUUUG
4. GACCAAUCUGCCCUCAGAGCUCGAGAACAUCUUCGGAUGCAGAGGAGGCAGGCUUCGGUGGCGCGAUAGUGCCAACGUCCUCAACCUCCAAUGCAUCCCACCACAUGAUGAUGCCUGAAGAGCCUUGUUUUUGUG
5. GACCAAUCUGCCCUCAGAGCUCGAGAACAUCUUCGGAUGCAGAUGAGGCAGGCUUCGGUGGCCCGAUAGCGUCAACGUCCUCAACCUCCAAUGCAUCCCACCACAUGAUGUUGCCUGAAGAGCCUUGGUUUUUUG
6. GACCAAUCUGACCUCAGAGCUCGAGAACAUCUUCGGAUGCAGAGGAGGGAGGCUUCGGUGGCGCGAUAGCGCCAACGUCCUCAACCUCCAAUGCAUCCCACCACAUGAUGAUGCCUGAAGAGCCUUGGCUUUUUG

-- reply
[-0.0298, 0.00801, 0.486, -2.39, -5.44, -2.01]

Give polymerase ribozyme fitness (log ratio) for each listed item.
1. GACCAAUCUGCCCUCAGAGCUCGAGAACAUCUUCGGAUGCAGAUGAGGCAGGCACCGGUGGCGCGAUAGCGCCAACGUCCUCAACCUCCAAUGCAUCCCACCACAUGAUGAUGCCUGAAGAGCCUUGGUUUUUUG
2. GACCAAUCUGCCCUCAGAGCUCGAGAACAUCUUCGGAUGCAGACGAGGCAGGCUUCGGUGGCGCGAUAGCGCCAACGUCCUCAACCUGCAAUGCAUCCCACCACAUGAUGAUGCCUGAAGAGCCUUGGUUUUUUG
3. GACCAAUCUGCCCUCAAAGCUCGAGAACAUCUUCGGAUGCAGAGGAGGCAGGUUUCGGUGGCGCGAUAGCGCCAACGUCCUCAACCUCUAAUGCAUCCCAACACAUGAGGAUGCCUGAAGAGCCUUGGUUUUUUG
4. GACCAAUCUGCCCUCAGAGCUCGAGAACAUCUUCGGAUGCAGAGGAGGCAGGCUUCGGCGGCGCGAUAGCGCCAACGUCCUCAACCUCCAAUGCAUACCACCACAUGACGAUGGCUGAAGAUCCUUGGUUUUUUG
5. GACCAAUCUGCCCUCAGAGCUCGAGAACAUCUUCGGAUGCAGAGGAGGCAGGCUUCGGUGGCGUGAUAGCGCCAACGUCCUCAACCUUCAAUGCAUCCCACCACAUGAUGAUGCCUGAAGAACCUUGGUUUUUUG

-- reply
[-2.01, -2.18, -6.85, -6.59, -0.852]
